Source of measurements: paper PMC4076524

# EXPERIMENTAL TARGET: MlotiK1 CNB domain T284Q mutant (Mesorhizobium japonicum, UniProt Q98GN8, T284Q)
# Sequence (Q98GN8 211-355 T284Q limits assumed): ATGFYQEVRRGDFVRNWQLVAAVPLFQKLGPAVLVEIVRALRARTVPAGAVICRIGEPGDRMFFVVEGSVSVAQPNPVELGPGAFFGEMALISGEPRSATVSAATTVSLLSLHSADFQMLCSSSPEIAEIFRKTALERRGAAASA
# EXPERIMENT: 8-NBD cAMP fluorescence competition binding assay
ENDPOINT LABEL: pKd
Quick note: pKd values are minus log10 of concentrations in mol/L.

**Query** Param readout= pKd; system= MlotiK1 CNB domain T284Q mutant (Mesorhizobium japonicum, UniProt Q98GN8, T284Q); entry= Nc1nc2c(ncn2[C@@H]2O[C@@H]3COP(=O)(O)O[C@H]3[C@H]2O)c(=O)[nH]1 ; returns value.
**Result** 5.16

###

# EXPERIMENTAL TARGET: MlotiK1 CNB domain R348Q mutant (Mesorhizobium japonicum, UniProt Q98GN8, R348Q)
# EXPERIMENT: 8-NBD cAMP fluorescence competition binding assay
# STATED CONDITIONS: affinities (Kd), range stated over R348N, R348Q and R348K for cAMP and cGMP
ENDPOINT LABEL: Kd

**Query** Could you share what Kd was measured for Nc1nc2c(ncn2[C@@H]2O[C@@H]3COP(=O)(O)O[C@H]3[C@H]2O)c(=O)[nH]1 , tested on MlotiK1 CNB domain R348Q mutant (Mesorhizobium japonicum, UniProt Q98GN8, R348Q)?
**Result** 16 to 46 µM
